Tested on: MS2 coat protein
Assay: apparent KD of MS2 coat protein; designed switch direction (-1 OFF switch, 1 ON switch): 1; higher = weaker reporter binding
Details: input ligand: microRNA oligo, concentration not stated
QUANTITY_KIND: apparent KD of MS2 coat protein (µM)
// note: answer is a bare numeric in µM

Answered cases to consult:
GUAGCAUACCGAGGAUAUUCAUAUUAUACAUGAGGAUCACCCAUGUAAGGCCGAUUACGGCCUUGGGAGAAGGCGGAAUGCUAC [Xeonanis - 20 Mod21] (Eterna round: R96, puzzle: Same State NG 2) : 0.0682
GGAAUAUUUACAGGAUAUGAGUUGUAAAGUCGAUCAGAAGGGUAGGUGUCUUACACGGUGUGUUACAUGAGGAUCACCCAUGUU [SameState NG1 #20] (Eterna round: R96, puzzle: Same State NG 1) : 0.147

get_value(item= GCUAGAAUUAAAGCCAACAUGAGGAUCACCCAUGUAUGUUGGCAGGAUAUCGUUUGCAAAGCAAACGAGAAGGGCCAUACUAGC [Mat - Same State NG 3 - JL Mod - D22] (Eterna round: R96, puzzle: Same State NG 3) , readout=apparent KD of MS2 coat protein) returns 0.0875

The sequence identified as CCGUAGAUGGUAGGAUAUGGAGCCUUAUUGGCUCCAGAAGGAUCGAAACAUGAGGAUCACCCAUGUUCGGCGGUCAAUAGACCG [Eli NG1ss - 85] (Eterna round: R96, puzzle: Same State NG 1) registered its apparent KD of MS2 coat protein at 0.0176
